Experiment: Antiproliferative activity against human MOLM14 cells after 3 days by CellTiter-Glo assay
Type: functional, cell-based
Details: MOLM-14, 72 h
pIC50: −log10 of the molar value.
readout-label: pIC50

INSERT INTO assay_data (smiles, reported_value) VALUES
  ('C[C@H](Nc1ncnc2nc[nH]c12)c1cc2cccc(Cl)c2c(=O)n1-c1ccccc1', 5.92),
  ('Cc1ccc2c(c1)C(=O)N(C)c1cnc(Nc3cccc(S(=O)(=O)N4CCC(O)CC4)c3)nc1N2C', 6.00),
  ('CCC(=O)N1CCN(S(=O)(=O)c2cccc(Nc3ncc4c(n3)N(C)c3ccc(C)cc3C(=O)N4C)c2)CC1', 6.21);

###

Target: Phosphatidylinositol 4,5-bisphosphate 3-kinase catalytic subunit delta isoform (Homo sapiens, UniProt O00329)
Sequence (O00329 whole entry, the tested form may be a part, canonical isoform): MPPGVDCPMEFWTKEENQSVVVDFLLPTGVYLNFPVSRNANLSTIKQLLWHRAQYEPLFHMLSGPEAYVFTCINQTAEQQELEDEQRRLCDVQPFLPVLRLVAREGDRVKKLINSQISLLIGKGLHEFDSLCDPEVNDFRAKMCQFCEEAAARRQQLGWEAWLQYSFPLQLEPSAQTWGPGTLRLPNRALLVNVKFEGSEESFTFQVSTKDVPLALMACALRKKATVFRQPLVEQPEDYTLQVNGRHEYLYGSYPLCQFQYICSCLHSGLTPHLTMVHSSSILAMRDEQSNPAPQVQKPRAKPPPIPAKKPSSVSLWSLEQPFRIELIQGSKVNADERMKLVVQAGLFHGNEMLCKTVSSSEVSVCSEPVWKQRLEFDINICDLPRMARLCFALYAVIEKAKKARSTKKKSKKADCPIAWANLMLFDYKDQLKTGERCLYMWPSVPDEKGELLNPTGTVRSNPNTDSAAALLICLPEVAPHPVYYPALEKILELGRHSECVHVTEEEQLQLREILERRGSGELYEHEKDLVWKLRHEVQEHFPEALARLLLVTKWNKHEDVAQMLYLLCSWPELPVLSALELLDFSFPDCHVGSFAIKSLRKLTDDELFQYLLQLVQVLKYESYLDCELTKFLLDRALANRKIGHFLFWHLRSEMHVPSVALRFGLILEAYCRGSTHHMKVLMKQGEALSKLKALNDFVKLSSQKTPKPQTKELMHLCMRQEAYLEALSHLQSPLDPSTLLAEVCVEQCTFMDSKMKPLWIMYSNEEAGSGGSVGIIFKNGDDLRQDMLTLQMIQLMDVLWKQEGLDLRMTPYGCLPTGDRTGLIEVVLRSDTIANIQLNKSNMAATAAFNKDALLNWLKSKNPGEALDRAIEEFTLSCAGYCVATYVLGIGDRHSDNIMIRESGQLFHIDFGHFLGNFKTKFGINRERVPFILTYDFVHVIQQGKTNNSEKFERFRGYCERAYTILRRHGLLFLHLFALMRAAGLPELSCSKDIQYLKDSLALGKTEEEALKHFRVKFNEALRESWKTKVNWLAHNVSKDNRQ
Assay: Inhibition of human PI3Kdelta (R108 to Q1044 residues) expressed in mammalian expression system incubated for 60 mins by ADAPTA assay
readout-label: IC50

INSERT INTO measurements (smiles, readout_label, reported_value) VALUES
  ('Cc1ccc2c(c1)C(=O)N(C)c1cnc(Nc3ccc(S(N)(=O)=O)cc3)nc1N2C', 'IC50', '30 nM'),
  ('Cc1cc(S(N)(=O)=O)ccc1Nc1ncc2c(n1)N(C)c1ccccc1C(=O)N2C', 'IC50', '820 nM'),
  ('Cc1ccc2c(c1)C(=O)N(C)c1cnc(Nc3cccc(S(=O)(=O)N4CCN(C)CC4)c3)nc1N2C', 'IC50', '51 nM'),
  ('C=CC(=O)NC1CCN(S(=O)(=O)c2cccc(Nc3ncc4c(n3)N(C)c3ccc(C)cc3C(=O)N4C)c2)CC1', 'IC50', '20 nM'),
  ('Cc1ccc2c(c1)C(=O)N(C)c1cnc(Nc3cccc(S(=O)(=O)N4CCC(O)CC4)c3)nc1N2C', 'IC50', '2.1 nM'),
  ('CN1C(=O)c2ccccc2N(C)c2nc(Nc3ccc(S(N)(=O)=O)cc3)ncc21', 'IC50', '49 nM'),
  ('C=CC(=O)Nc1ccc(NS(=O)(=O)c2ccc(Nc3ncc4c(n3)N(C)c3ccc(C)cc3C(=O)N4C)cc2)cc1', 'IC50', '96 nM'),
  ('C=CC(=O)Nc1cccc(NS(=O)(=O)c2cccc(Nc3ncc4c(n3)N(C)c3ccc(C)cc3C(=O)N4C)c2)c1', 'IC50', '39 nM'),
  ('C=CC(=O)Nc1ccc(NS(=O)(=O)c2cccc(Nc3ncc4c(n3)N(C)c3ccc(C)cc3C(=O)N4C)c2)cc1', 'IC50', '29 nM'),
  ('C=CC(=O)N1CCN(S(=O)(=O)c2ccc(Nc3ncc4c(n3)N(C)c3ccc(C)cc3C(=O)N4C)cc2)CC1', 'IC50', '230 nM'),
  ('CCC(=O)N1CCN(S(=O)(=O)c2cccc(Nc3ncc4c(n3)N(C)c3ccc(C)cc3C(=O)N4C)c2)CC1', 'IC50', '1.7 nM'),
  ('C=CC(=O)NC1CCN(S(=O)(=O)c2ccc(Nc3ncc4c(n3)N(C)c3ccc(C)cc3C(=O)N4C)cc2)CC1', 'IC50', '120 nM'),
  ('CN1C(=O)c2ccccc2N(C)c2nc(Nc3cccc(S(N)(=O)=O)c3)ncc21', 'IC50', '4.1 nM'),
  ('Cc1ccc2c(c1)C(=O)N(C)c1cnc(Nc3cccc(S(N)(=O)=O)c3)nc1N2C', 'IC50', '76 nM'),
  ('C=CC(=O)N1CCN(S(=O)(=O)c2cccc(Nc3ncc4c(n3)N(C)c3ccc(C)cc3C(=O)N4C)c2)CC1', 'IC50', '1.5 nM'),
  ('C=CC(=O)Nc1cccc(NS(=O)(=O)c2ccc(Nc3ncc4c(n3)N(C)c3ccc(C)cc3C(=O)N4C)cc2)c1', 'IC50', '440 nM'),
  ('Cc1ccc2c(c1)C(=O)N(C)c1cnc(Nc3ccc(S(=O)(=O)N4CCN(C)CC4)cc3)nc1N2C', 'IC50', '2600 nM'),
  ('Cc1ccc2c(c1)C(=O)N(C)c1cnc(Nc3ccc(S(=O)(=O)N4CCC(O)CC4)cc3)nc1N2C', 'IC50', '41 nM');

###

Target: Phosphatidylinositol 4,5-bisphosphate 3-kinase catalytic subunit gamma isoform (Homo sapiens, UniProt P48736)
Sequence (P48736 whole entry, the tested form may be a part, canonical isoform): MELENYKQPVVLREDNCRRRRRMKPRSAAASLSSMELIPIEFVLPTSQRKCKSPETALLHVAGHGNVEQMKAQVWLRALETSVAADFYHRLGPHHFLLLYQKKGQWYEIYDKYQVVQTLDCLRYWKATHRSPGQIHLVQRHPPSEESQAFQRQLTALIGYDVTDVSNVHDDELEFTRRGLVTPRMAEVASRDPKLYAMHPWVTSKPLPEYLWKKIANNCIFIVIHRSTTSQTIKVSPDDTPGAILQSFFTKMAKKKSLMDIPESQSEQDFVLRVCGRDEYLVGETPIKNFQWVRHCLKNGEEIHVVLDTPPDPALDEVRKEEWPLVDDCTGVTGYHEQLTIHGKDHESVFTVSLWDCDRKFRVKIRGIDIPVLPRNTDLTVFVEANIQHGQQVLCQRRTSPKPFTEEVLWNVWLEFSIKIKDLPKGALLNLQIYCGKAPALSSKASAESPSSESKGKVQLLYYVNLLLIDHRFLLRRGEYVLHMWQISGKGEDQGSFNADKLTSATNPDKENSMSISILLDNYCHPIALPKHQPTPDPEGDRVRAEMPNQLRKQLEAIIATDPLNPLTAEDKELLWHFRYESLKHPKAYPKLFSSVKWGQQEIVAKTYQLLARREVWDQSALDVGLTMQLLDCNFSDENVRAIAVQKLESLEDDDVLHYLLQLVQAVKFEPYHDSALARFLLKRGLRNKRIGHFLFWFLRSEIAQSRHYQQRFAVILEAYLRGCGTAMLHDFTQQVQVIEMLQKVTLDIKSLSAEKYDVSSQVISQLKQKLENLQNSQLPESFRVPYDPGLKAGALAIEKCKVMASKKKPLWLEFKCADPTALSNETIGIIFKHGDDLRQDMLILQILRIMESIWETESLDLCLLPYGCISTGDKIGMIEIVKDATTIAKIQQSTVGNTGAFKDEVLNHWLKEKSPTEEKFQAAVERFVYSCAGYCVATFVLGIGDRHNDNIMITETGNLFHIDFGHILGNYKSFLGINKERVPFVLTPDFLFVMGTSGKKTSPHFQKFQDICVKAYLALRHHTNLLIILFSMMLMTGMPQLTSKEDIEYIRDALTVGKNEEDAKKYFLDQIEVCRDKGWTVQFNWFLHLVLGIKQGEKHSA
Test: Inhibition of human PI3Kgamma (S144 to A1102 residues) expressed in mammalian expression system incubated for 60 mins by ADAPTA assay
readout-label: IC50 (nM)

INSERT INTO assay_data (smiles, readout_label, reported_value) VALUES
  ('C=CC(=O)N1CCN(S(=O)(=O)c2cccc(Nc3ncc4c(n3)N(C)c3ccc(C)cc3C(=O)N4C)c2)CC1', 'IC50', 2.8),
  ('Cc1ccc2c(c1)C(=O)N(C)c1cnc(Nc3ccc(S(=O)(=O)N4CCC(O)CC4)cc3)nc1N2C', 'IC50', 58),
  ('C=CC(=O)Nc1ccc(NS(=O)(=O)c2cccc(Nc3ncc4c(n3)N(C)c3ccc(C)cc3C(=O)N4C)c2)cc1', 'IC50', 15),
  ('CCC(=O)N1CCN(S(=O)(=O)c2cccc(Nc3ncc4c(n3)N(C)c3ccc(C)cc3C(=O)N4C)c2)CC1', 'IC50', 11),
  ('Cc1ccc2c(c1)C(=O)N(C)c1cnc(Nc3cccc(S(=O)(=O)N4CCC(O)CC4)c3)nc1N2C', 'IC50', 6.5),
  ('C=CC(=O)Nc1cccc(NS(=O)(=O)c2cccc(Nc3ncc4c(n3)N(C)c3ccc(C)cc3C(=O)N4C)c2)c1', 'IC50', 330),
  ('Cc1ccc2c(c1)C(=O)N(C)c1cnc(Nc3cccc(S(N)(=O)=O)c3)nc1N2C', 'IC50', 110),
  ('Cc1ccc2c(c1)C(=O)N(C)c1cnc(Nc3cccc(S(=O)(=O)N4CCN(C)CC4)c3)nc1N2C', 'IC50', 560),
  ('Cc1cc(S(N)(=O)=O)ccc1Nc1ncc2c(n1)N(C)c1ccccc1C(=O)N2C', 'IC50', 2400),
  ('C=CC(=O)N1CCN(S(=O)(=O)c2ccc(Nc3ncc4c(n3)N(C)c3ccc(C)cc3C(=O)N4C)cc2)CC1', 'IC50', 110);

###

Target: Aurora kinase B (Homo sapiens)
Sequence (Q96GD4 whole entry): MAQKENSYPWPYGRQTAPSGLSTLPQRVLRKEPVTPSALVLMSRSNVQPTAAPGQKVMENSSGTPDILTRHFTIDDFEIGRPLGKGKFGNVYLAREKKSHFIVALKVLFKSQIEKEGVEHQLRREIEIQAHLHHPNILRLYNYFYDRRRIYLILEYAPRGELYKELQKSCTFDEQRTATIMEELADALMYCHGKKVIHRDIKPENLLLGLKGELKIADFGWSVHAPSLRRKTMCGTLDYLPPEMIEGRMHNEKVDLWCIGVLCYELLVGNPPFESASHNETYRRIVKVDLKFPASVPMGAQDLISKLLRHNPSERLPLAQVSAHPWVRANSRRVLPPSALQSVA
readout-label: IC50 (nM)

INSERT INTO results (smiles, readout_label, reported_value) VALUES
  ('CN1C(=O)c2ccccc2N(C)c2nc(Nc3ccc(S(N)(=O)=O)cc3)ncc21', 'IC50', 13),
  ('CN1C(=O)c2ccccc2N(C)c2nc(Nc3cccc(S(N)(=O)=O)c3)ncc21', 'IC50', 4.6);

###

Entries and their IC50
Experiment: Antiproliferative activity against human MOLT4 cells after 3 days by CellTiter-Glo assay
Type: functional, cell-based
Conditions: MOLT-4, 72 h
readout-label: IC50 (nM)

INSERT INTO measurements (smiles, units_text, reported_value) VALUES
  ('C=CC(=O)N1CCN(S(=O)(=O)c2cccc(Nc3ncc4c(n3)N(C)c3ccc(C)cc3C(=O)N4C)c2)CC1', 'nM', 33),
  ('CCC(=O)N1CCN(S(=O)(=O)c2cccc(Nc3ncc4c(n3)N(C)c3ccc(C)cc3C(=O)N4C)c2)CC1', 'nM', 1200),
  ('Cc1ccc2c(c1)C(=O)N(C)c1cnc(Nc3cccc(S(=O)(=O)N4CCC(O)CC4)c3)nc1N2C', 'nM', 1300),
  ('C[C@H](Nc1ncnc2nc[nH]c12)c1cc2cccc(Cl)c2c(=O)n1-c1ccccc1', 'nM', 2300);

###

Target: Phosphatidylinositol 4,5-bisphosphate 3-kinase catalytic subunit gamma isoform (Homo sapiens)
Assay: Inhibition of human PI3Kgamma (S144 to A1102 residues) expressed in mammalian expression system incubated for 60 mins by ADAPTA assay
Mark yes only for IC50 values smaller than 300 nM; exact matches and larger values are no.

INSERT INTO results (smiles, label) VALUES
  ('Cc1ccc2c(c1)C(=O)N(C)c1cnc(Nc3ccc(S(=O)(=O)N4CCN(C)CC4)cc3)nc1N2C', 'no'),
  ('C=CC(=O)Nc1ccc(NS(=O)(=O)c2ccc(Nc3ncc4c(n3)N(C)c3ccc(C)cc3C(=O)N4C)cc2)cc1', 'no'),
  ('Cc1ccc2c(c1)C(=O)N(C)c1cnc(Nc3ccc(S(N)(=O)=O)cc3)nc1N2C', 'yes'),
  ('C=CC(=O)Nc1cccc(NS(=O)(=O)c2ccc(Nc3ncc4c(n3)N(C)c3ccc(C)cc3C(=O)N4C)cc2)c1', 'no'),
  ('CN1C(=O)c2ccccc2N(C)c2nc(Nc3cccc(S(N)(=O)=O)c3)ncc21', 'yes'),
  ('CN1C(=O)c2ccccc2N(C)c2nc(Nc3ccc(S(N)(=O)=O)cc3)ncc21', 'yes'),
  ('C=CC(=O)NC1CCN(S(=O)(=O)c2cccc(Nc3ncc4c(n3)N(C)c3ccc(C)cc3C(=O)N4C)c2)CC1', 'yes'),
  ('C=CC(=O)NC1CCN(S(=O)(=O)c2ccc(Nc3ncc4c(n3)N(C)c3ccc(C)cc3C(=O)N4C)cc2)CC1', 'yes');
